Experiment: Standard protocol for determination of kcat and KM (continuous spectrophotometric assay, Acetyl CoA hydrolysis at 235 nm)
Type: biochemical
Conditions: purified protein; about 23° C.; 20 mM HEPES pH 6.8, 10% ethylene glycol, 0.2 mM acetyl CoA
The reader will find reported Kcat values listed item by item below.

{"columns": ["molecule", "Kcat / s⁻¹"],
 "data": [
  ["SEQ ID NO: 334: GAT polypeptide (protein, 15_3G11, GAT polypeptide) MIEVKPINAEDTYEIRHRILRPNQPLEACKYETDLLGGTFHLGGYYRGKLVSIASFHQAEHPELEGQKQYQLRGMATLEEYREQKAGSTLIRHAEELLRKKGADLLWCNARTSASGYYKKLGFSEQGEVYDIPPVGPHILMYKKLT", 1.19],
  ["SEQ ID NO: 341: GAT polypeptide (protein, 16A1, GAT polypeptide) MIEVKPINAEDTYEIRHRILRPNQPLEACMYETDLLGGTLHLGGYYQGKLISIASFHKAEHSGLEGEEQYQLRGMATLEGYREQKAGSTLIRHAEELLRKKGADLLWCNARTSVSGYYEKLGFSEQGEVYDIPPIGPHILMYKKLT", 0.173],
  ["SEQ ID NO: 448: GAT polypeptide (protein, 0_6D10, GAT polypeptide) MLEVKPINAEDTYELRHKILRPNQPLEVCMYETDLLRGAFHLGGFYRGKLISIASFHQAEHSDLQGQKQYQLRGMATLEGYRDQKAGSSLIRHAEQILRKRGADMLWCNARTSASGYYKKLGFSEQGEVFETPPVGPHILMYKRLT", 1.85],
  ["SEQ ID NO: 318: GAT polypeptide (protein, 14_6D4, GAT polypeptide) MIEVKPINAEDTYEIRHRILRPNQPLEACKYETDLLGGTFHLGGYYRGKLISIASFNQAEHPELEGQKQYQLRGMATLEGYREQKAGSTLIRHAEALLRKKGADLLWCNARTSASGYYKKLGFSEQGEVYDTPPVGPHILMYKKLT", 4.27],
  ["SEQ ID NO: 344: GAT polypeptide (protein, 18D6, GAT polypeptide) MIEVKPINAEDTYEIRHRILRPNQPLEACKYETDLLGGTFHLGGYYRGKLISIASFHKAEHSELEGQKQYQLRGMATLEGYREQKAGSTLIRHAEELLRKKGADLLWCNARTSASGYYEKLGFSEQGEVYDIPPIGPHILMYKKLA", 0.16],
  ["SEQ ID NO: 445: GAT polypeptide (protein, 0_5D3, GAT polypeptide) MLEVKPINAEDTYELRHRILRPNQPIEACMYESDLLRGAFHLGGYYRGKLISIASFHQAEHSELQGQKQYQLRGMATLEGYREQKAGSSLIKHAEEILRKRGADLLWCNARTSASGYYKKLGFSEQGEIFETPPVGPHILMYKRIT", 5.37],
  ["SEQ ID NO: 488: GAT polypeptide (protein, 3_15B2, GAT polypeptide) MLEVKPINAEDTYELRHKILRPNQPLEVCMYETDLLRGAFHLGGYYGGKLISIASFHQAEHSELQGQKQYQLRGMATLEGYREQKAGSSLIKHAEEILRKRGADLLWCNARTSASGYYKKLGFSEQGEIFETPPVGPHILMYKRIT", 1.7355]
]}
